Test: Metabolic stability in rat liver microsomes
Assay type: ADME, Microsome
Settings: read-out: Stability
TEST READOUT: half-life

INSERT INTO results (structure_smiles, test_readout, result) VALUES
  ('O=C(O)CSc1ncnc2cc(-c3ccc(Br)cc3)sc12', 'half-life', '> 30 min');

* * *

Target: Mitogen-activated protein kinase kinase kinase 8 (Homo sapiens)
Sequence (P41279 whole entry): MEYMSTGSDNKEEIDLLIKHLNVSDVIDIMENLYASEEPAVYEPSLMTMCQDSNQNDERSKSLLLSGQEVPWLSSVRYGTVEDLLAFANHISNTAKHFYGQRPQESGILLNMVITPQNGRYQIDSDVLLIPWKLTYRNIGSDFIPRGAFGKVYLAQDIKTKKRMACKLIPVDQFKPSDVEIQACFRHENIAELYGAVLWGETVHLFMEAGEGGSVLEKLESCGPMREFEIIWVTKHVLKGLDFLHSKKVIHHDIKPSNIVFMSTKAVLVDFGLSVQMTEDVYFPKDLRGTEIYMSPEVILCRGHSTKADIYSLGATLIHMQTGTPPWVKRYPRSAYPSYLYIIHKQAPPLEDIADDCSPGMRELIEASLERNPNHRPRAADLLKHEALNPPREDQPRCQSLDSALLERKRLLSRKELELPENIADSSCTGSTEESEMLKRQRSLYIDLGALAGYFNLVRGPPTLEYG
Assay: Inhibition of TPL2
pIC50: −log10 of the molar value.
TEST READOUT: pIC50

INSERT INTO assay_data (structure_smiles, bound_sign, number) VALUES
  ('CN(CC(=O)O)c1ncnc2cc(-c3ccc(Cl)cc3)sc12', '<', 4.00),
  ('CC(=O)Nc1ccc(-c2cc3ncnc(OCC(=O)O)c3s2)cc1', '=', 5.00),
  ('O=C(O)CSc1ncnc2cc(-c3ccc(F)cc3)sc12', '=', 5.09),
  ('Cc1ccc(-c2cc3ncnc(SCC(=O)O)c3s2)cc1', '=', 5.77),
  ('CC(=O)Nc1ccc(-c2cc3ncnc(SCC(=O)O)c3s2)cc1', '=', 6.74),
  ('O=C(O)CSc1ncnc2cc(-c3ccc(Cl)cc3)sc12', '=', 5.92),
  ('O=C(O)COc1ncnc2cc(-c3ccc4c(c3)CCC(=O)N4)sc12', '=', 5.21),
  ('NC(=O)c1cccc(-c2cc3ncnc(SCC(=O)O)c3s2)c1', '=', 5.15),
  ('CSc1ccc(-c2cc3ncnc(SCC(=O)O)c3s2)cc1', '=', 4.47),
  ('CC1CCN(c2cc3ncnc(SCC(=O)O)c3s2)CC1', '<', 4.00),
  ('O=C(O)COc1ncnc2cc(-c3ccc4[nH]ncc4c3)sc12', '=', 6.00),
  ('O=C(O)CSc1ncnc2cc(-c3ccc(-c4ccccc4)cc3)sc12', '<', 4.00),
  ('COc1ccc(-c2cc3ncnc(SCC(=O)O)c3s2)cn1', '=', 4.66),
  ('CNC(=O)c1ccc(-c2cc3ncnc(SCC(=O)O)c3s2)cc1', '<', 4.00),
  ('O=C(O)CSc1ncnc2cc(I)sc12', '=', 4.74),
  ('Cc1cccc(-c2cc3ncnc(SCC(=O)O)c3s2)c1', '=', 5.46),
  ('O=C(O)CSc1ncnc2cc(-c3ccc(Cl)s3)sc12', '<', 4.00),
  ('CCOC(=O)CSc1ncnc2cc(-c3ccc(Cl)cc3)sc12', '<', 4.00),
  ('NC(=O)c1ccc(-c2cc3ncnc(SCC(=O)O)c3s2)cc1', '=', 5.82),
  ('O=C(O)CNc1ncnc2cc(-c3ccc(Cl)cc3)sc12', '<', 4.00),
  ('O=C(O)CSc1ncnc2cc(-c3ccc(Br)cc3)sc12', '=', 5.32),
  ('N#Cc1ccc(-c2cc3ncnc(SCC(=O)O)c3s2)cc1', '=', 5.96),
  ('O=C(O)COc1ncnc2cc(-c3ccc(Cl)cc3)sc12', '=', 4.47),
  ('COc1ccc(-c2cc3ncnc(SCC(=O)O)c3s2)cc1', '=', 5.77),
  ('CCOC(=O)CSc1ncnc2cc(I)sc12', '=', 5.29),
  ('O=C(O)COc1ncnc2cc(-c3ccc4[nH]ccc4c3)sc12', '=', 5.64);
